# key: entry, value: EC50
System: dengue virus type 2
protocol.text: Antiviral activity against Dengue virus type 2 NGC infected in African green monkey Vero B cells assessed as reduction in virus yield
Type: functional, organism-based, Thailand/NGS-C/1944
reported.conditions: Dengue virus, Thailand/NGS-C/1944, Vero B; read-out: EC50
recorded.endpoint: EC50 (µM)

- O=C1c2nc(N3CCOCC3)nc(Nc3cccc(O)c3)c2CN1Cc1ccccc1: 100
- NC(=O)c1ncn([C@@H]2O[C@H](CO)[C@@H](O)[C@H]2O)n1 [RIBAVIRIN]: 11.9
- O=C(NCCc1ccccc1)c1nc(N2CCOCC2)nc(Nc2cccc(O)c2)c1CO: 20.7

====

# key: entry, value: CC50
protocol.text: Cytotoxicity in African green monkey Vero E6 cells assessed as reduction in cell viability by MTS assay
Type: cell-based
reported.conditions: chlorocebus sabaeus, Vero E6 cells (Vero C1008)
recorded.endpoint: CC50

• Oc1cccc(Nc2nc(NCCOc3ccccc3)nc3[nH]cnc23)c1 = > 124 µM
• CCCCCOCc1c(Nc2cccc(O)c2)nc(N2CCOCC2)nc1C(=O)NCc1ccc(C(F)(F)F)cc1 = 48.2 µM
• CCCCCOCc1c(Nc2ccc(S(N)(=O)=O)cc2)nc(N2CCOCC2)nc1C(=O)NCCOc1ccccc1 = > 83.5 µM
• NS(=O)(=O)c1ccc(Nc2nc(N3CCOCC3)nc3c2CN(CCOc2ccccc2)C3=O)cc1 = > 97.9 µM
• NS(=O)(=O)c1ccc(Nc2nc(N3CCOCC3)nc3c2CN(Cc2ccccc2)C3=O)cc1 = > 104 µM
• CCCCCOCc1c(Nc2cccc(O)c2)nc(N2CCOCC2)nc1C(=O)NCc1ccccc1 = > 98.9 µM
• CCCCCOCc1c(Nc2ccc(S(N)(=O)=O)cc2)nc(N2CCOCC2)nc1C(=O)NCc1ccccc1 = > 87.9 µM
• C[C@@]1(O)[C@H](O)[C@@H](CO)O[C@H]1n1ccc2c(N)ncnc21 [BETA-2'-C-METHYL-7-DEAZA-ADENOSINE] = > 357 µM

====

Tested on: dengue virus type 2
protocol.text: Antiviral activity against Dengue virus type 2 NGC infected in African green monkey Vero B cells assessed as reduction in virus yield
Assay type: functional, organism-based, Thailand/NGS-C/1944
reported.conditions: Dengue virus, Thailand/NGS-C/1944, Vero B; read-out: EC50
pEC50: −log10 of the molar value.
# key: entry, value: pEC50
recorded.endpoint: pEC50

• CCCCCOCc1c(Nc2ccc(S(N)(=O)=O)cc2)nc(N2CCOCC2)nc1C(=O)NCc1ccccc1 = 6.00
• OCCNc1nc(Nc2cccc(O)c2)c2nc[nH]c2n1 = 5.13
• O=C1c2nc(N3CCOCC3)nc(Nc3cccc(O)c3)c2CN1CCOc1ccccc1 = 4.69
• O=C(NCCOc1ccccc1)c1nc(N2CCOCC2)nc(Nc2cccc(O)c2)c1CO = 4.21
• NS(=O)(=O)c1ccc(Nc2nc(N3CCOCC3)nc3c2CN(CCOc2ccccc2)C3=O)cc1 = 4.91

====

# key: entry, value: CC50
protocol.text: Cytotoxicity in African green monkey Vero B cells assessed as reduction in cell viability by MTS assay
Format: cell-based
reported.conditions: chlorocebus aethiops
recorded.endpoint: CC50

• NS(=O)(=O)c1ccc(Nc2nc(N3CCOCC3)nc3c2COC3=O)cc1 = > 128 µM
• CCCCCOCc1c(Nc2ccc(S(N)(=O)=O)cc2)nc(N2CCOCC2)nc1C(=O)NCCOc1ccccc1 = > 83.5 µM
• COc1ccc(CN2Cc3c(Nc4ccc(S(N)(=O)=O)cc4)nc(N4CCOCC4)nc3C2=O)cc1 = > 97.9 µM
• O=C1c2nc(N3CCOCC3)nc(Nc3cccc(O)c3)c2CN1Cc1ccccc1 = > 120 µM
• CCCCCOCc1c(Nc2ccc(S(N)(=O)=O)cc2)nc(N2CCOCC2)nc1C(=O)NCc1ccccc1 = > 87.9 µM
• O=C1OCc2c(Nc3cccc(O)c3)nc(N3CCOCC3)nc21 = > 128 µM

====

# key: entry, value: EC50
System: dengue virus type 2
protocol.text: Antiviral activity against Dengue virus type 2 NGC infected in African green monkey Vero B cells assessed as reduction in virus yield
Assay type: functional, organism-based, Thailand/NGS-C/1944
reported.conditions: Dengue virus, Thailand/NGS-C/1944, Vero B; read-out: EC50
recorded.endpoint: EC50

* COc1ccc(CNC(=O)c2nc(N3CCOCC3)nc(Nc3cccc(O)c3)c2CO)cc1 | > 107 µM
* O=C(NCc1ccccc1)c1nc(N2CCOCC2)nc(Nc2cccc(O)c2)c1CO | > 115 µM
* NS(=O)(=O)c1ccc(Nc2nc(N3CCOCC3)nc(C(=O)NCc3ccccc3)c2CO)cc1 | > 100 µM
* CCCCCOCc1c(Nc2ccc(S(N)(=O)=O)cc2)nc(N2CCOCC2)nc1C(=O)NCc1ccc(OC)cc1 | > 83.5 µM
